Reported values of growth inhibition for individual entries
- Test summary: NCI Yeast Anticancer Drug Screen. Data for the mlh1 strain (AID 171);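 further: 0% = growth of vehicle-treated control cultures of the same strain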
- Experimental conditions: S. cerevisiae mlh1 strain growth inhibition; at 3.7 µM; stronger effect = higher value
The panel holds about 79,000 compounds, 15% with a hit somewhere; the sample as a whole holds those more often.
Write the number in % without appending the unit.

Molecule: CCC1(O)C(=O)OCc2c1cc1n(c2=O)Cc2c-1nc1ccccc1c2OC (centres undefined)
Measurement unit: %
growth inhibition: 19

What value of measured growth inhibition is listed for `CCN(CCCl)c1cc(CN(C)C)cc(NC(=O)c2ccc(C(=O)Nc3cc(CN(C)C)cc(N(CC)CCCl)c3)cc2)c1` ?
-6

What value of measured growth inhibition is listed for `O=[N+]([O-])c1oc2ccc3ccccc3c2c1CCO` ?
44

What value of measured growth inhibition is listed for `Oc1cccc2nc3ccccc3nc12` ?
-33

What value of measured growth inhibition is listed for C[C@]12CCC3[C@@H](CC[C@@H]4c5nonc5CC[C@]34C)C1CCC2=O (some centres undefined) ?
11

What value of measured growth inhibition is listed for `O=C(/C=C(\c1ccccc1)N1CC1)c1ccccc1` ?
-3

What value of measured growth inhibition is listed for CC1CN=C(Nc2ccccc2)S1 (centres undefined) ?
-7

What value of measured growth inhibition is listed for `NNc1ccccc1Cl` ?
80

What value of measured growth inhibition is listed for COc1cc([C@@H]2c3cc4c(cc3C[C@@H]3COC(=O)C32)OCO4)cc(OC)c1O (some centres undefined) ?
14

---

- Test summary: NCI Yeast Anticancer Drug Screen. Data for the sgs1 mgt1 strain (AID 161);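 further: 0% = growth of cultures given vehicle only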
- Experimental conditions: S. cerevisiae sgs1 mgt1 strain, at 5.0 µM (retest, dose inferred, filed as 0.5), stronger effect = higher value
About 79,000 compounds went through this panel and 15% of them were active in at least one assay; those are over-represented in the sample as a whole.
Reported values of growth inhibition for individual entries
Write the number in % without appending the unit.

Compound: CCOc1c(Br)cc(/C=C/[N+](=O)[O-])cc1OC
Measurement unit: %
growth inhibition: 32
//
Compound: CC(=O)OC1C(=O)OCC23CCC4(C)OC4C2OC2CC(OC(=O)/C=C/C=C/C(=O)OCCC1C)C3(C)C21CO1 (configuration not stated)
Measurement unit: %
growth inhibition: 99
//
Compound: Cc1ccc([C@H]2N[C@@H]2c2ccccn2)cc1
Measurement unit: %
growth inhibition: -5
//
Compound: C[C@H](N)C(=O)N[C@@H]1[C@H]2C(=C(O)C[C@@H](O)[C@@H]2O)C(=O)O[C@]1(C)C(Cl)Cl
Measurement unit: %
growth inhibition: 12
//
Compound: CC[C@]1(O)CC(OC2CC(N(C)C)C(O)C(C)O2)c2c(cc3c(c2O)C(=O)c2c(O)cccc2C3=O)[C@@H]1C(=O)OC (some centres not stated)
Measurement unit: %
growth inhibition: 36

What value of measured growth inhibition is listed for `O=c1c2ccccc2[se]n1-c1cccnc1` ?
58

What value of measured growth inhibition is listed for `Oc1c(Cl)cc(Cl)cc1Cl` ?
-1

What value of measured growth inhibition is listed for O=C1C2CC(Cl)C(SSC3CC4C(=O)N(SC(Cl)(Cl)C(Cl)Cl)C(=O)C4CC3Cl)CC2C(=O)N1SC(Cl)(Cl)C(Cl)Cl (configuration not stated) ?
-9

What value of measured growth inhibition is listed for CC12CCC(O)CC1=CCC1C2CCC2(C)C(NC(=O)C3CCCN3C(=O)CN(CCCl)CCCl)CCC12 (configuration not stated) ?
1

What value of measured growth inhibition is listed for [I][Hg][CH2]C1COCC([CH2][Hg][I])O1 (configuration not stated) ?
0

What value of measured growth inhibition is listed for `Br[Se]c1ccccn1` ?
-5

What value of measured growth inhibition is listed for `CN[C@H]1C[C@@H]2O[C@@](C)([C@H]1OC)n1c3ccccc3c3c4c(c5c6ccccc6n2c5c31)C(=O)NC4` ?
97
